Target: Acyl-CoA: Cholesterol Acyltransferase (ACAT) (Rattus norvegicus)
Construct: Microsomes were obtained by differential centrifugation; from tissue; host or cells: liver microsomes of male Sprague Dawley rats
Sequence (Q7TQM4 whole entry): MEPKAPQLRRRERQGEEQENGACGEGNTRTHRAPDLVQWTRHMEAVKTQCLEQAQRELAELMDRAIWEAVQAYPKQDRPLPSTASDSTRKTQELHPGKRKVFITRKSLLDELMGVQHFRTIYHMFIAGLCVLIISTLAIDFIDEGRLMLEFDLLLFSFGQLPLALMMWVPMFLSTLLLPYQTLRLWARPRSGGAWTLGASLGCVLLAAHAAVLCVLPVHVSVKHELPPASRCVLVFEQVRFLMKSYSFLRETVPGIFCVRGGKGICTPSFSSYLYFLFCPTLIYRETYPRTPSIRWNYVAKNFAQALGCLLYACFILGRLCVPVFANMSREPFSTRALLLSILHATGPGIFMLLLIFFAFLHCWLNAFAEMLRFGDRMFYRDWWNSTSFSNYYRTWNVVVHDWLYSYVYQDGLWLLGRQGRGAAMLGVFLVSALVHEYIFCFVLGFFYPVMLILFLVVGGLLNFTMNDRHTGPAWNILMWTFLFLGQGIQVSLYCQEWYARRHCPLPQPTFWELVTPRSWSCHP
Experiment: Inhibition of acyl-CoA: cholesterol acyltransferase (ACAT) in hepatic microsomes (in vitro)
Format: biochemical, rat (male Sprague Dawley)
Details: In Vitro ACAT IC50
Experimental: A. Assay of the Inhibition of Acyl-CoA: Cholesterol Acyltransferase (ACAT) in Hepatic Microsomes The ability of the compounds to inhibit ACAT, the enzyme responsible for the intracellular synthesis of cholesteryl esters, was tested as follows. Male Sprague Dawley rats weighing 150-300 g, were fed rat chow ad libitum. The animals were fasted for twenty-four hours prior to being sacrificed by decapitation. […]
ENDPOINT_LABEL: IC50 (nM)
// units = nM; emit number, no label

Please look at this molecule and report its IC50: CCCCCCCN(CCCCCSc1nc(-c2ccccc2)c(-c2ccccc2)[nH]1)C(=O)Nc1ccc(C#N)cc1 60
